Items are presented alongside their recorded viability.
protocol: reducers of endogenous Her2 protein level, primary screen, SKBR3 breast tumor cells, AlphaScreen, ATP viability (AID 461);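 note: percent of carrier control wells set as 100% viability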
condition.label: 18-24 h, measured here: SKBR3 viability, ATP luminescence, at 10 µM
Don't forget the unit after the value.

Example entries and their recorded answers appear below.
Cc1cc(C)c2c(n1)nn1c(N3CCN(c4cccc(Cl)c4)CC3)cc(C)nc21	98.5%
Nn1c(SCC(=O)Nc2ccc(F)cc2)nnc1-c1cccnc1	90.5%

Below: the item to evaluate.
Request: What viability value was documented for this compound, "CCOC(=O)CSc1nc(C)c(C(=O)OCC)s1" ?
Result: 89%

###

protocol: reversal of MRP1-mediated doxorubicin resistance, pilot screen, H69AR cells, doxorubicin co-treatment (AID 601)
condition.label: H69AR cells, CellTiter-Glo, 72 h; compound alone cytotoxicity; at 10 µM
test.readout: viability (%)
# value in %; strip the unit string

Example entries and their recorded answers appear below.
CCC(=O)N1C(=O)CCN(C(C)=O)c2ccccc21	103
Cc1cc(OCC(=O)Nc2ccc3oc(-c4ccncc4)nc3c2)ccc1Cl	60.1
COc1ccc(C(=O)N2CCN(c3nc4cc(C)ccc4cc3C#N)CC2)c(OC)c1	85.4
Cc1ccccc1CS(=O)(=O)Cc1ccc(C(=O)NCCCN2CCOCC2)o1	98.2
O=S(=O)(c1ccc(S(=O)(=O)N2CCN3CCCC3C2)cc1)N1CCCC1 (centres undefined)	98.9

Request: What viability value was documented for this compound, Cc1ccc(NC(=O)C2CCCN(S(=O)(=O)c3cnc[nH]3)C2)cc1C (centres undefined) ?
Result: 100

Request: What viability value was documented for this compound, CCC(Sc1ccc2nnc(-c3ccc(F)cc3)n2n1)C(=O)OC (centres undefined) ?
Result: 83

Request: What viability value was documented for this compound, "COc1ccc(CC(=O)OCC(=O)NC(=O)NC2CCCCC2)cc1" ?
Result: 92.4

Request: What viability value was documented for this compound, CCc1cc2c(=O)n(C(C)C(=O)OC3CCCCC3)cnc2s1 (centres undefined) ?
Result: 81.6

Request: What viability value was documented for this compound, O=C1CC(N2CCC(C(=O)N3CCCCC3)CC2)C(=O)N1 (centres undefined) ?
Result: 96.9

Request: What viability value was documented for this compound, CCCC(C)C(=O)Nc1ccc(C(N)=O)cc1 (centres undefined) ?
Result: 93.1

Request: What viability value was documented for this compound, COc1ccc(C2C(=O)N(C3CCCCC3)CC(=O)N2Cc2ccco2)cc1 (centres undefined) ?
Result: 97.7

Request: What viability value was documented for this compound, "COc1ccc(CNC(=O)CCc2nc(-c3ccccc3F)no2)c(OC)c1" ?
Result: 95.9

Request: What viability value was documented for this compound, "Cc1ncoc1C(=O)Nc1ccccc1C(N)=O" ?
Result: 102

Request: What viability value was documented for this compound, "O=C(Oc1ccc2c(c1)CCC2)N1CCOCC1" ?
Result: 95.6

###

Items are presented alongside their recorded viability.
protocol: reversal of MRP1-mediated doxorubicin resistance, pilot screen, H69AR cells, doxorubicin co-treatment (AID 601)
condition.label: H69AR cells + 2 uM doxorubicin, CellTiter-Glo, 72 h; measured here: viability with 2 uM doxorubicin; at 10 µM; stronger effect = lower value
# value in %; strip the unit string

CCOC(=O)N1CCN(C(=O)c2n[nH]c(=O)c3ccccc23)CC1	89.8
CCOC(=O)c1sc(C)c2c1NC(C)(c1cccs1)NC2=O (centres undefined)	90.6
CC(=O)N(CCN(C(C)=O)c1ccccc1)c1ccccc1	80
CC1(C)CC(=O)C=C(Nc2ccc(F)cc2)C1	90.1
COc1ccc(C)cc1NS(=O)(=O)c1ccc(NS(=O)(=O)c2ccc(NC(C)=O)cc2)cc1	88.9
CCOC(=O)CNC(=O)CSc1ncnc2c1cnn2Cc1ccccc1	90.1
CCN(CCCNC(=O)C1CCN(S(=O)(=O)c2cccc3nonc23)CC1)Cc1ccccc1	81.8
CCC(=O)Nc1ccc(F)c(Cl)c1	91.1

Below: the item to evaluate.
Request: What viability value was documented for this compound, COc1ccc(C(CNC(=O)CN2C(=O)NC3(CC(C)CC(C)(C)C3)C2=O)N2CCOCC2)cc1 (centres undefined) ?
Result: 88.7

###

protocol: growth suppression of yeast trafficking mutant, preliminary HTS, modulators of trafficking downstream of Golgi apparatus project, 1536-format plate, OD 615 nm (AID 637)
condition.label: yeast transport mutant growth, absorbance 615 nm, 18 h; stronger effect = higher value
Calls of active or inactive are those of the source. Cut-off read from the data, not from the text of the source: active = inhibition above about 30%; inactive = the rest.
test.readout: inhibition

Request: What inhibition value was documented for this compound, "N#Cc1nc(-c2ccco2)oc1NCc1ccco1" ?
Result: -8.25% (inactive)

Request: What inhibition value was documented for this compound, "O=C(CCC(=O)N1CCc2ccccc2C1)N1CCN(S(=O)(=O)c2ccccc2)CC1" ?
Result: 12.9% (inactive)

Request: What inhibition value was documented for this compound, O=C(NC1CCCc2ccccc21)C1CCN(S(=O)(=O)c2cnc[nH]2)CC1 (configuration not stated) ?
Result: -3.87% (inactive)

Request: What inhibition value was documented for this compound, O=C(NCc1ccc2c(c1)OCO2)c1cc2n(n1)C(C(F)(F)F)CC(c1ccc3c(c1)OCO3)N2 (configuration not stated) ?
Result: 5% (inactive)

Request: What inhibition value was documented for this compound, "Cc1c(C(=O)O)c(-c2ccccc2)nn1-c1ccccc1" ?
Result: -2.3% (inactive)

Request: What inhibition value was documented for this compound, "CC(C)CCNC(=O)NC(=O)CN1C(=O)NC2(CCCCC2)C1=O" ?
Result: 10.9% (inactive)

Request: What inhibition value was documented for this compound, N#CCSc1nc2c(c(C3CC=CCC3)c1C#N)CCC2 (configuration not stated) ?
Result: -1.94% (inactive)

Request: What inhibition value was documented for this compound, "O=C(Nc1ccncc1)c1cncc(Br)c1" ?
Result: 1.5% (inactive)

Request: What inhibition value was documented for this compound, "Cc1ccnc(SCCn2c(N3CCCCC3)nc3c2c(=O)n(C)c(=O)n3C)n1" ?
Result: -3% (inactive)

Request: What inhibition value was documented for this compound, CCCN(C(=O)CSc1nnc(-c2ccoc2C)n1N)C1CCS(=O)(=O)C1 (configuration not stated) ?
Result: 2.13% (inactive)

Request: What inhibition value was documented for this compound, "COC(=O)c1[nH]c2ccc(F)cc2c1NS(=O)(=O)c1ccc(OC)cc1OC" ?
Result: 4.92% (inactive)

Request: What inhibition value was documented for this compound, "CC(C)c1cc(C(=O)NCc2ccco2)no1" ?
Result: -2.83% (inactive)

Request: What inhibition value was documented for this compound, N#CC1(c2ccccc2)CCC(=NO)CC1 (configuration not stated) ?
Result: -2.06% (inactive)

Request: What inhibition value was documented for this compound, "O=c1cc(NCc2ccccc2)nc2n1CCCS2" ?
Result: -5.71% (inactive)

Request: What inhibition value was documented for this compound, "COc1ccc(C(=O)NCCSc2ccccn2)cc1" ?
Result: 0.32% (inactive)

Request: What inhibition value was documented for this compound, "O=c1cc(-c2ccc(Cl)cc2)[nH][nH]1" ?
Result: 1% (inactive)

Request: What inhibition value was documented for this compound, "Cc1cnc(C(=O)Nc2ccc(-n3cnnn3)cc2)cn1" ?
Result: -4.68% (inactive)

Request: What inhibition value was documented for this compound, "Cc1cc(OCC(=O)N2CCOCC2)cc2oc(=O)c3ccccc3c12" ?
Result: -10.8% (inactive)

Request: What inhibition value was documented for this compound, O=C1CC(N2CCN(c3ccc(Cl)c(Cl)c3)CC2)C(=O)N1 (configuration not stated) ?
Result: 27.7% (inactive)

Request: What inhibition value was documented for this compound, "CCOC(=O)c1oc2ccccc2c1NC(=O)COC" ?
Result: -3.93% (inactive)

Request: What inhibition value was documented for this compound, "C=CCn1c(-c2ccccc2)c[nH]c1=S" ?
Result: 0.16% (inactive)

Request: What inhibition value was documented for this compound, "CN(C)c1ccc(/C(=N\O)c2ccccc2)cc1" ?
Result: -13.5% (inactive)

###

Items are presented alongside their recorded viability.
protocol: growth inhibitors of H69AR lung tumor, primary screen, human, duplicate replicates (AID 580);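 note: 100% = mean luminescence of untreated wells and 0% = no signal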
condition.label: H69AR lung tumor cells viability, ATP luminescence, 72 h; at 10 µM; stronger effect = lower value
# value in %; strip the unit string

Example entries and their recorded answers appear below.
O=C(O)CC1CCCC(c2ccccc2)C1=O (stereo not drawn)	99.6
COc1ccc(OC)c(C2C(C#N)=C(N)Oc3cc(C)[nH]c(=O)c32)c1 (stereo not drawn)	99.5
CCn1c(SCC(=O)Nc2nc(C)cs2)nnc1-c1ccco1	92
O=C(c1ccco1)N1CCN(S(=O)(=O)c2ccc3c(c2)CCN3C(=O)C2CCC2)CC1	95.6
COc1cc(OC)c(C2C(C#N)=C(N)OC3=C2C(=O)CC(C)(C)C3)cc1OC (stereo not drawn)	83.2
COc1ccc(NC(C)=O)cc1NC(=O)CN1CCN(c2ccccn2)CC1	85.6

Request: What viability value was documented for this compound, "Cc1cnc(NC(=O)CSc2nc3ccccc3c(=O)[nH]2)s1" ?
Result: 93.3

Request: What viability value was documented for this compound, c1ccc2c(c1)CC(N1CCCCC1)c1ccccc1N2 (stereo not drawn) ?
Result: 91.5
